System: Escherichia coli ATCC® 8739™
Method: Enumeration of colonies using the method of the invention
Assay type: cell-based
Test Context: E. coli; TSA agar; 35° C.; microcolony count
Reported Metric: Counting Scan at 17 h on MCE membrane with fluorochrome
Give the figure only, with no unit attached.

Molecule: CN(C)CCNc1ccc(O)c2c1C(=O)c1c(O)ccc(NCCN(C)C)c1C2=O [DRAQ5]
Quantitative Readout: 185

Molecule: Cc1c(CC(=O)ON2C(=O)CCC2=O)c(=O)oc2cc(N)c(S(=O)(=O)O)cc12 [AF350-NHS Ester]
Quantitative Readout: 109

Molecule: CC[N+]1=C(C=CC=CC=C2N(CCCCCC(=O)O)c3ccc(S(=O)(=O)O)cc3C2(C)C)C(C)(C)c2cc(S(=O)(=O)[O-])ccc21 [Sulfo-Cy5-Acid]
Quantitative Readout: 114

Next up:
Task item: Tell me Counting Scan at 17 h on MCE membrane with fluorochrome reported for CCC(=O)c1ccc2cc(N(C)C)ccc2c1 [Prodan, 6-propionyl-2-dimethyaminonaphthalene]
Reply: 118

Numbers sourced from patent US20250002967A1.
